tested on: MRSA isolates; test: MIC/MBC, CLSI broth microdilution, MRSA isolates; type: cell-based, Staphylococcus aureus; settings: Staphylococcus aureus, MRSA, pH 5.5, read-out: Average MBC, average of six MRSA isolates, pH 5.5
Please respond with reported MBC for every item in the list.
Give bare numbers, in mg/L.

// below: answered compounds
CN[C@H](CC(C)C)C(=O)N[C@H]1C(=O)N[C@@H](CC(N)=O)C(=O)N[C@H]2C(=O)N[C@H]3C(=O)N[C@H](C(=O)N[C@H](C(=O)O)c4cc(O)cc(O)c4-c4cc3ccc4O)[C@H](O)c3ccc(c(Cl)c3)Oc3cc2cc(c3O[C@@H]2O[C@H](CO)[C@@H](O)[C@H](O)[C@H]2O[C@H]2C[C@](C)(N)[C@H](O)[C@H](C)O2)Oc2ccc(cc2Cl)[C@H]1O [Vancomycin, vancomycin, reference compound]    4.7
[Li+].[Li+].[O-]c1c(Cl)cc(Cl)cc1-c1cc(Cl)cc(Cl)c1[O-] [C59Li]    0.25
Oc1c(Br)cc(Br)cc1-c1cc(Br)cc(Br)c1O    0.67

I have 2 compounds here; please give me MBC for each one.
1. [Na+].[Na+].[O-]c1c(Cl)cc(Cl)cc1-c1cc(Cl)cc(Cl)c1[O-] [C59Na]
2. Oc1c(Cl)cc(Cl)cc1-c1cc(Cl)cc(Cl)c1O

Result:
[0.25, 0.5]

----------
Please respond with reported MBC for every item in the list.
tested on: MRSA isolates; assay: MIC/MBC, CLSI broth microdilution, MRSA isolates; format: cell-based, Staphylococcus aureus; details: Staphylococcus aureus, MRSA, pH 5.5, TCH 1516, pH 5.5
One number for each entry, in mg/L.

// below: answered compounds
Oc1c(Cl)cc(Cl)cc1-c1cc(Cl)cc(Cl)c1O    0.5
CN[C@H](CC(C)C)C(=O)N[C@H]1C(=O)N[C@@H](CC(N)=O)C(=O)N[C@H]2C(=O)N[C@H]3C(=O)N[C@H](C(=O)N[C@H](C(=O)O)c4cc(O)cc(O)c4-c4cc3ccc4O)[C@H](O)c3ccc(c(Cl)c3)Oc3cc2cc(c3O[C@@H]2O[C@H](CO)[C@@H](O)[C@H](O)[C@H]2O[C@H]2C[C@](C)(N)[C@H](O)[C@H](C)O2)Oc2ccc(cc2Cl)[C@H]1O [Vancomycin, vancomycin, reference compound]    4
[Na+].[Na+].[O-]c1c(Cl)cc(Cl)cc1-c1cc(Cl)cc(Cl)c1[O-] [C59Na]    0.25
Oc1c(Br)cc(Br)cc1-c1cc(Br)cc(Br)c1O    1

API: the following record is the query input.
Form: compound = [Li+].[Li+].[O-]c1c(Cl)cc(Cl)cc1-c1cc(Cl)cc(Cl)c1[O-] [C59Li] ; MBC = 0.25

----------
tested on: MRSA isolates; assay: MIC/MBC, CLSI broth microdilution, MRSA isolates; format: cell-based, Staphylococcus aureus; conditions: Staphylococcus aureus, MRSA, pH 7.4, MRSA 0606, pH 7.4
MEASURE_NAME: MBC (µg/mL)
Numbers only, in µg/mL.

[Li+].[Li+].[O-]c1c(Cl)cc(Cl)cc1-c1cc(Cl)cc(Cl)c1[O-] [C59Li]    2

I have 3 compounds here; please give me MBC for each one.
1. Oc1c(Cl)cc(Cl)cc1-c1cc(Cl)cc(Cl)c1O
2. [K+].[K+].[O-]c1c(Cl)cc(Cl)cc1-c1cc(Cl)cc(Cl)c1[O-] [C59K]
3. [Na+].[Na+].[O-]c1c(Cl)cc(Cl)cc1-c1cc(Cl)cc(Cl)c1[O-] [C59Na]

Result:
[4, 6, 2]
